test system: 931267-113-T-J1-PDC multicell spheroid viability; experiment: Anticancer human tumor 931267-113-T-J1-PDC patient-derived colon adenocarcinoma cell line growth inhibition [PI3K]; conditions: second compound 0.0316 µM; first compound 0.316 µM; hits give low values;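 also: viability read 7 days after compound addition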
// values below are reported viability, T/C
Give just the numeric value; % need not be written.

Record excerpt, results attached:
* Cn1ncc(Cl)c1-c1cc(C(=O)NC(CN)Cc2cccc(F)c2)sc1Cl (stereo unspecified) + CC(Nc1ccc2c(c1)OCCn1cc(N3C(=O)OCC3C(F)F)nc1-2)C(N)=O | 94.8
* Cn1ncc(Cl)c1-c1cc(C(=O)NC(CN)Cc2cccc(F)c2)sc1Cl (stereo unspecified) + COc1c(OCCCN2CCOCC2)ccc2c3n(c(=NC(=O)c4cnc(N)nc4)nc12)CCN3 | 82.4
* C=CC(=O)N1CCN(c2nc(=O)n(-c3c(C)ccnc3C(C)C)c3nc(-c4c(O)cccc4F)c(F)cc23)C(C)C1 (stereo unspecified) + CC(Nc1ncnc2nc[nH]c12)c1cc2cccc(Cl)c2c(=O)n1-c1ccccc1 | 96.6
* Cn1nccc1Nc1nccc(-c2ccn(C(CO)c3ccc(Cl)c(F)c3)c(=O)c2)n1 (stereo unspecified) + CC(Nc1ncnc2nc[nH]c12)c1cc2cccc(Cl)c2c(=O)n1-c1ccccc1 | 98.9
* CCN1CCN(Cc2ccc(Nc3ncc(F)c(-c4cc(F)c5nc(C)n(C(C)C)c5c4)n3)nc2)CC1 + COc1c(OCCCN2CCOCC2)ccc2c3n(c(=NC(=O)c4cnc(N)nc4)nc12)CCN3 | 67.2

The recorded viability, T/C with 931267-113-T-J1-PDC multicell spheroid viability for C#Cc1c(F)ccc2cc(O)cc(-c3ncc4c(N5CC6CCC(C5)N6)nc(OCC56CCCN5CC(F)C6)nc4c3F)c12 (stereo unspecified) + CC(Nc1ccc2c(c1)OCCn1cc(N3C(=O)OCC3C(F)F)nc1-2)C(N)=O was 53.4

Entry C=CC(=O)N1CCN(c2nc(=O)n(-c3c(C)ccnc3C(C)C)c3nc(-c4c(O)cccc4F)c(F)cc23)C(C)C1 (stereo unspecified) + CC(Nc1ccc2c(c1)OCCn1cc(N3C(=O)OCC3C(F)F)nc1-2)C(N)=O : viability, T/C on 931267-113-T-J1-PDC multicell spheroid viability = 90.4

Entry CCCS(=O)(=O)Nc1ccc(F)c(C(=O)c2c[nH]c3ncc(-c4ccc(Cl)cc4)cc23)c1F + COc1c(OCCCN2CCOCC2)ccc2c3n(c(=NC(=O)c4cnc(N)nc4)nc12)CCN3 under 931267-113-T-J1-PDC multicell spheroid viability had viability, T/C of 93.3

Test item CC(C)NCC(C(=O)N1CCN(c2ncnc3c2C(C)CC3O)CC1)c1ccc(Cl)cc1 (stereo unspecified) + Cc1nc(NC(=O)N2CCCC2C(N)=O)sc1-c1ccnc(C(C)(C)C(F)(F)F)c1 ; 931267-113-T-J1-PDC multicell spheroid viability; reported viability, T/C was 90.9

Tested on 931267-113-T-J1-PDC multicell spheroid viability: CCCS(=O)(=O)Nc1ccc(F)c(C(=O)c2c[nH]c3ncc(-c4ccc(Cl)cc4)cc23)c1F + CC(Nc1ccc2c(c1)OCCn1cc(N3C(=O)OCC3C(F)F)nc1-2)C(N)=O . Observed viability, T/C: 110

Form field viability, T/C for item C#Cc1c(F)ccc2cc(O)cc(-c3ncc4c(N5CC6CCC(C5)N6)nc(OCC56CCCN5CC(F)C6)nc4c3F)c12 (stereo unspecified) + CC(Nc1ncnc2nc[nH]c12)c1cc2cccc(Cl)c2c(=O)n1-c1ccccc1 on 931267-113-T-J1-PDC multicell spheroid viability: 57.6
